Measured Emax, listed per entry for reference.
Target: human mAChR M1 (Homo sapiens, UniProt P11229)
Construct: host or cells: CHO-K1
Sequence (P11229 whole entry): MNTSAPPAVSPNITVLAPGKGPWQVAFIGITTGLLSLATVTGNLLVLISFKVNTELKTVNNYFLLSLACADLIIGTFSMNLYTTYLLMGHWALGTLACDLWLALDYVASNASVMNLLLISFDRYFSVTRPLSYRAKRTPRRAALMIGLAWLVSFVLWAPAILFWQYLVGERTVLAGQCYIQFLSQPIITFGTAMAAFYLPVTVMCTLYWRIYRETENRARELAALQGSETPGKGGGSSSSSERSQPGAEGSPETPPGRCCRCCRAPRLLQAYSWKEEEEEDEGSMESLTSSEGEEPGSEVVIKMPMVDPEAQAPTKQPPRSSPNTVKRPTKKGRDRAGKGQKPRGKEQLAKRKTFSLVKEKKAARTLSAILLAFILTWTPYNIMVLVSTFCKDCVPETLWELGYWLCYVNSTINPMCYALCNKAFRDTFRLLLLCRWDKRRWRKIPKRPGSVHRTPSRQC
Assay: mAChR M1 cell-based functional assay (calcium mobilization, Fluo-4, FDSS)
Settings: CHO-K1 cells stably expressing hM1; EC20 acetylcholine response; read-out: Human M1 Emax
Description: Chinese hamster ovary (CHO-K1) cells stably expressing rat (r)M1 were purchased from the American Type Culture Collection and cultured according to their indicated protocol. […] Calcium flux was measured using the Functional Drug Screening System (FDSS) 6000 (Hamamatsu Corporation, Tokyo, Japan) as an increase in the fluorescent static ratio. […] Agonist activity was analyzed as a concentration-dependent increase in calcium mobilization upon compound addition. […]

compound	unit label	Emax
CC1COCCC1NC(=O)c1cc(Cc2ccc(-c3ccn(C)n3)cc2)c2ccsc2n1 (stereo not shown)	%	59.5
CC1(C)COCCC1NC(=O)c1cc(Cc2ccc(-n3cccn3)cc2)c2ccsc2n1 (stereo not shown)	%	69.1
Cc1nc(-c2ccc(Cc3cc(C(=O)NC4CCOCC4C)nc4sccc34)cc2)co1 (stereo not shown)	%	51.4
Cn1ccc2c(Cc3ccc(-c4nccs4)cc3)cc(C(=O)N[C@H]3CCCC[C@@H]3O)nc21	%	55.4
O=C(N[C@H]1CCCC[C@@H]1O)c1cc(Cc2ccc(-n3cccn3)cc2)c2ccsc2n1	%	52.9
Cn1cc(-c2ccc(Cc3cc(C(=O)NC4CC(F)(F)C4)nc4sccc34)cn2)cn1	%	63.4
Cn1ccc(-c2ccc(Cc3cc(C(=O)NC4CCOCC4)nc4c3ccn4C)cn2)n1	%	77.6
Cn1ccc2c(Cc3ccc(-c4cscn4)cc3)cc(C(=O)NC3CN(C4COC4)C3)nc21	%	66
CC1CC(NC(=O)c2cc(Cc3ccc(-c4cnn(C)c4)nc3)c3ccsc3n2)CC(C)O1 (stereo not shown)	%	54.8
Cn1cc(-c2ccc(Cc3cc(C(=O)NC4CC(F)C4)nc4sccc34)cn2)cn1 (stereo not shown)	%	58.6
Cn1ncc2c(Cc3ccc(-c4cscn4)cc3)cc(C(=O)NC3CC4(COC4)C3)nc21	%	77.8
COCC(C)NC(=O)c1cc(Cc2ccc(-c3ccn(C)n3)nc2)c2ccsc2n1 (stereo not shown)	%	59.5
Cn1ncc2c(Cc3ccc(-c4cscn4)cc3)cc(C(=O)NC3CCOCC3)nc21	%	69
Cn1ncc2c(Cc3ccc(-n4cccn4)cc3)cc(C(=O)NC3CCOCC3)nc21	%	67.9
Cn1ccc2c(Cc3ccc(-n4cccn4)cc3)cc(C(=O)N[C@H]3CC[C@@H]3O)nc21	%	73.3
Cn1ccc(-c2ccc(Cc3cc(C(=O)NC4CCOCC4(C)C)nc4sccc34)cc2)n1 (stereo not shown)	%	61.6
O=C(NCC1CCN1)c1cc(Cc2ccc(-n3cccn3)cc2)c2ccsc2n1 (stereo not shown)	%	42.7
Cn1ccc(-c2ccc(Cc3cc(C(=O)N[C@H]4CC[C@@H]4O)nc4c3ccn4C)cn2)n1	%	74.2
Cn1ccc2c(Cc3ccc(-c4cscn4)cc3)cc(C(=O)N[C@H]3CCOC3)nc21	%	50.6
COCCNC(=O)c1cc(Cc2ccc(-c3coc(C)n3)cc2)c2ccsc2n1	%	60.8
Cn1ccc(-c2ccc(Cc3cc(C(=O)NC4CC(F)(F)C4)nc4sccc34)cc2)n1	%	68.7
Cc1nc(-c2ccc(Cc3cc(C(=O)NC4CC(C)OC(C)C4)nc4sccc34)cc2)co1 (stereo not shown)	%	58.9

====

Target: UniProt:P11229
Assay: mAChR M1 cell-based functional assay (calcium mobilization, Fluo-4, FDSS)
Details: CHO-K1 cells stably expressing hM1; positive allosteric modulator activity as increase in the EC20 acetylcholine response
pEC50: −log10 of the molar value.
Measured pEC50, listed per entry for reference.

compound	pEC50
Cn1ccc2c(Cc3ccc(-c4cscn4)cc3)cc(C(=O)N[C@H]3CCOC3)nc21	5.54
Cn1ccc(-c2ccc(Cc3cc(C(=O)N[C@H]4CCCC[C@@H]4O)nc4c3ccn4C)cc2)n1	6.89
Cc1nc(-c2ccc(Cc3cc(C(=O)NC4CCOC(C)(C)C4)nc4c3ccn4C)cc2)co1 (stereo not drawn)	6.28
Cn1ccc2c(Cc3ccc(-c4nccs4)cc3)cc(C(=O)N[C@H]3CCC[C@@H]3O)nc21	4.47
O=C(NC1CC2(COC2)C1)c1cc(Cc2ccc(-n3cccn3)cc2)c2ccsc2n1	6.37
Cc1nc(-c2ccc(Cc3cc(C(=O)NC4CCOCC4)nc4sccc34)cc2)co1	6.85
CC1(C)COCCC1NC(=O)c1cc(Cc2ccc(-n3cccn3)cc2)c2ccsc2n1 (stereo not drawn)	5.89
Cc1nc(-c2ccc(Cc3cc(C(=O)NC4CC(C)OC(C)C4)nc4sccc34)cc2)co1 (stereo not drawn)	5.98
CCn1ccc2c(Cc3ccc(-n4cccn4)cc3)cc(C(=O)N[C@H]3CCCCC[C@@H]3O)nc21	6.85

====

Target: human mAChR M1 (Homo sapiens)
Construct: host or cells: CHO-K1
Experiment: mAChR M1 cell-based functional assay (calcium mobilization, Fluo-4, FDSS)
Details: CHO-K1 cells stably expressing hM1; EC20 acetylcholine response; read-out: Human M1 Emax
Method: Chinese hamster ovary (CHO-K1) cells stably expressing rat (r)M1 were purchased from the American Type Culture Collection and cultured according to their indicated protocol. […] Calcium flux was measured using the Functional Drug Screening System (FDSS) 6000 (Hamamatsu Corporation, Tokyo, Japan) as an increase in the fluorescent static ratio. […] Agonist activity was analyzed as a concentration-dependent increase in calcium mobilization upon compound addition. […]
Lab note: anything with Emax below 70% is marked yes (1); values at 70% or higher are marked no (0).

compound	group label
Cn1ccc(-c2ccc(Cc3cc(C(=O)NC4CCOC(C)(C)C4)nc4c3ccn4C)cn2)n1 (stereo not drawn)	no (0)
CCn1ccc2c(Cc3ccc(-n4cccn4)cc3)cc(C(=O)N[C@H]3CCCCC[C@@H]3O)nc21	yes (1)
Cn1ncc2c(Cc3ccc(-n4cccn4)cc3)cc(C(=O)N[C@H]3CCOC[C@@H]3O)nc21	no (0)
Cn1ccc(-c2ccc(Cc3cc(C(=O)NCC4CCOCC4)nc4sccc34)cn2)n1	yes (1)
Cn1cc(-c2ccc(Cc3cc(C(=O)N[C@H]4CCOC4)nc4sccc34)cn2)cn1	yes (1)
Cc1nc(-c2ccc(Cc3cc(C(=O)N[C@H]4CCOC[C@@H]4O)nc4sccc34)cc2)co1	yes (1)
Cn1ncc2c(Cc3ccc(-c4cscn4)cc3)cc(C(=O)N[C@H]3CCCC[C@@H]3O)nc21	no (0)
Cn1ncc2c(Cc3ccc(-c4cscn4)cc3)cc(C(=O)N[C@H]3CCOC[C@@H]3O)nc21	no (0)
Cn1ccc(-c2ccc(Cc3cc(C(=O)N[C@H]4CCCC[C@@H]4O)nc4sccc34)cn2)n1	yes (1)
CC1COCCC1NC(=O)c1cc(Cc2ccc(-c3ccn(C)n3)nc2)c2ccsc2n1 (stereo not drawn)	yes (1)
Cn1ccc2c(Cc3ccc(-n4cccn4)cc3)cc(C(=O)N[C@H]3CCCC[C@@H]3O)nc21	yes (1)
Cn1ccc2c(Cc3ccc(-c4nccs4)cc3)cc(C(=O)NC3CCOC(C)(C)C3)nc21 (stereo not drawn)	yes (1)
